target: SARS-CoV-2 nsp16/nsp10 (Severe acute respiratory syndrome coronavirus 2); assay: biochemical; settings: estimated from IC50 values
Could you label it label 1 if measured Ligand Efficiency (LE) nsp16 is 0.3 kcal/mol or higher, and label 0 otherwise?

molecule: CSC[C@H]1O[C@@H](n2cnc3c(N)ncnc32)[C@H](O)[C@@H]1O [ZINC4228245]
assigned_category: label 1
//
molecule: O=C(CCCn1cncn1)N1CCCC(c2nc3ccccc3s2)C1 (stereo not drawn) [ZINC23398144]
assigned_category: label 0
//
molecule: Nc1ncnc2c1ncn2[C@@H]1O[C@H](COC(=O)c2ccc(S(=O)(=O)F)cc2)[C@@H](O)[C@H]1O [ZINC000048222133]
assigned_category: label 0
//
molecule: O=C(Cc1csc(SCC(=O)c2ccccc2)n1)Nc1cccc2nsnc12 [ZINC38661771]
assigned_category: label 0
//
molecule: Cc1nc(O)cc(CNc2nc3c(c(=O)[nH]2)Cc2ccccc2OC3)n1 [ZINC000095519272]
assigned_category: label 0
//
molecule: Nc1ncnc2c1ncn2[C@@H]1O[C@H](C(=O)N2CCN(CC(=O)Nc3cccc4c3CNC4=O)CC2)[C@@H](O)[C@H]1O [ZINC000017654909]
assigned_category: label 0

Threshold query (Ligand Efficiency (LE) nsp16 >= 0.3 kcal/mol) on Nc1ncnc2c1ncn2[C@@H]1O[C@H](CSCC[C@H](N)C(=O)O)[C@@H](O)[C@H]1O [S-(5′-Adenosyl)-L-homocysteine (SAH), S-(5′-Adenosyl)-L-homocysteine, reference compound]
label 1

Threshold query (Ligand Efficiency (LE) nsp16 >= 0.3 kcal/mol) on Cc1ccc(S(=O)(=O)OC[C@H]2O[C@@H](n3cnc4c(N)ncnc43)[C@H](O)[C@@H]2O)cc1 [ZINC3861767]
label 0

Threshold query (Ligand Efficiency (LE) nsp16 >= 0.3 kcal/mol) on CCNC(=O)NCCSC[C@H]1O[C@@H](n2cnc3c(N)ncnc32)[C@H](O)[C@@H]1O [ZINC473112262]
label 0
